As shown below, each of these compounds has a reported inhibition at 10 µM value.
- Test system: DLD-1
- PROCEDURE SUMMARY: MTS assay, DLD-1 cells
- Format: cell-based
- RUN CONDITIONS: Homo sapiens, 72 hours, read-out: DLD-1, MTS cell kill % inhibition

Req: Can you look up the measured inhibition at 10 µM of O=C(c1ccc2[nH]c(-c3ccc[nH]c3=O)c(-c3ccc(-c4ccccc4)cc3)c2c1)N1CCN(Cc2ccccn2)CC1 [Compound 41] for me?
Resp: 80 to 100%

Req: Can you look up the measured inhibition at 10 µM of O=C(NCCCN1CCOCC1)c1ccc2[nH]c(-c3ccc[nH]c3=O)c(Br)c2c1 [Compound 56] for me?
Resp: < 50%

Req: Can you look up the measured inhibition at 10 µM of O=C(c1ccc2[nH]c(-c3ccc[nH]c3=O)c(-c3ccccc3)c2c1)N1CCCCC1 [Compound 17] for me?
Resp: 50 to 79%

---

- System: DLD-1
- PROCEDURE SUMMARY: MTS assay, DLD-1 cells
- Type: cell-based
- RUN CONDITIONS: Homo sapiens, 72 hours, read-out: DLD-1, MTS cell kill % inhibition
ENDPOINT LABEL: inhibition at 10 µM

Worked examples follow.
• O=C(Nc1ccccc1Cl)c1ccc2[nH]c(-c3ccc[nH]c3=O)c(-c3ccccc3)c2c1 = 80 to 100%
• O=c1[nH]cccc1-c1[nH]c2ccccc2c1C1CCN(S(=O)(=O)c2ccccc2)CC1 = < 50%
• Cc1ccc(-c2c(-c3ccc[nH]c3=O)[nH]c3ccc(C(=O)NCCCN4CCOCC4)cc23)cc1F = 50 to 79%
• O=C(NCCCN1CCOCC1)c1ccc2[nH]c(-c3ccc[nH]c3=O)c(-c3ccc(F)c(F)c3)c2c1 = 80 to 100%
• O=C(NCCOc1ccccc1)c1ccc2[nH]c(-c3ccc[nH]c3=O)c(-c3ccccc3)c2c1 = 50 to 79%
• CCOC(=O)N1CCN(C(=O)c2ccc3[nH]c(-c4ccc[nH]c4=O)c(-c4ccc(-c5ccccc5)cc4)c3c2)CC1 = 50 to 79%
• O=C(c1ccc2[nH]c(-c3ccc[nH]c3=O)c(-c3ccccc3)c2c1)N1CCN(c2cnccn2)CC1 = 50 to 79%
• O=C(NCCCN1CCOCC1)c1ccc2[nH]c(-c3ccc[nH]c3=O)c(-c3ccccc3)c2c1 = 80 to 100%

Req: Can you look up the measured inhibition at 10 µM of `O=C(NCc1ccc(F)cc1F)c1ccc2[nH]c(-c3ccc[nH]c3=O)c(-c3ccccc3)c2c1` for me?
Resp: 80 to 100%

Req: Can you look up the measured inhibition at 10 µM of `O=C(NCCCN1CCOCC1)c1ccc2[nH]c(-c3ccc[nH]c3=O)c(-c3ccc(Cl)cc3)c2c1` for me?
Resp: < 50%

Req: Can you look up the measured inhibition at 10 µM of `O=C(NC1CCC1)c1ccc2[nH]c(-c3ccc[nH]c3=O)c(-c3ccccc3)c2c1` for me?
Resp: 80 to 100%

Req: Can you look up the measured inhibition at 10 µM of `CN(CCc1ccccc1)C(=O)c1ccc2[nH]c(-c3ccc[nH]c3=O)c(-c3ccccc3)c2c1` for me?
Resp: 80 to 100%

Req: Can you look up the measured inhibition at 10 µM of `O=C(NCc1ccccn1)c1ccc2[nH]c(-c3ccc[nH]c3=O)c(-c3ccc(-c4ccccc4)cc3)c2c1` for me?
Resp: 80 to 100%

Req: Can you look up the measured inhibition at 10 µM of `O=c1[nH]cccc1-c1[nH]c2ccccc2c1-c1ccccc1` for me?
Resp: 50 to 79%

Req: Can you look up the measured inhibition at 10 µM of `O=C(NCCCN1CCOCC1)c1ccc2[nH]c(-c3ccc[nH]c3=O)c(-c3ccc(Oc4ccccc4)cc3)c2c1` for me?
Resp: 80 to 100%

Req: Can you look up the measured inhibition at 10 µM of `O=C(Nc1cccc(Cl)c1)c1ccc2[nH]c(-c3ccc[nH]c3=O)c(-c3ccccc3)c2c1` for me?
Resp: 80 to 100%

---

- MEASURED TARGET: IGF-1R (Homo sapiens, UniProt P08069)
- Sequence (P08069 31-1367): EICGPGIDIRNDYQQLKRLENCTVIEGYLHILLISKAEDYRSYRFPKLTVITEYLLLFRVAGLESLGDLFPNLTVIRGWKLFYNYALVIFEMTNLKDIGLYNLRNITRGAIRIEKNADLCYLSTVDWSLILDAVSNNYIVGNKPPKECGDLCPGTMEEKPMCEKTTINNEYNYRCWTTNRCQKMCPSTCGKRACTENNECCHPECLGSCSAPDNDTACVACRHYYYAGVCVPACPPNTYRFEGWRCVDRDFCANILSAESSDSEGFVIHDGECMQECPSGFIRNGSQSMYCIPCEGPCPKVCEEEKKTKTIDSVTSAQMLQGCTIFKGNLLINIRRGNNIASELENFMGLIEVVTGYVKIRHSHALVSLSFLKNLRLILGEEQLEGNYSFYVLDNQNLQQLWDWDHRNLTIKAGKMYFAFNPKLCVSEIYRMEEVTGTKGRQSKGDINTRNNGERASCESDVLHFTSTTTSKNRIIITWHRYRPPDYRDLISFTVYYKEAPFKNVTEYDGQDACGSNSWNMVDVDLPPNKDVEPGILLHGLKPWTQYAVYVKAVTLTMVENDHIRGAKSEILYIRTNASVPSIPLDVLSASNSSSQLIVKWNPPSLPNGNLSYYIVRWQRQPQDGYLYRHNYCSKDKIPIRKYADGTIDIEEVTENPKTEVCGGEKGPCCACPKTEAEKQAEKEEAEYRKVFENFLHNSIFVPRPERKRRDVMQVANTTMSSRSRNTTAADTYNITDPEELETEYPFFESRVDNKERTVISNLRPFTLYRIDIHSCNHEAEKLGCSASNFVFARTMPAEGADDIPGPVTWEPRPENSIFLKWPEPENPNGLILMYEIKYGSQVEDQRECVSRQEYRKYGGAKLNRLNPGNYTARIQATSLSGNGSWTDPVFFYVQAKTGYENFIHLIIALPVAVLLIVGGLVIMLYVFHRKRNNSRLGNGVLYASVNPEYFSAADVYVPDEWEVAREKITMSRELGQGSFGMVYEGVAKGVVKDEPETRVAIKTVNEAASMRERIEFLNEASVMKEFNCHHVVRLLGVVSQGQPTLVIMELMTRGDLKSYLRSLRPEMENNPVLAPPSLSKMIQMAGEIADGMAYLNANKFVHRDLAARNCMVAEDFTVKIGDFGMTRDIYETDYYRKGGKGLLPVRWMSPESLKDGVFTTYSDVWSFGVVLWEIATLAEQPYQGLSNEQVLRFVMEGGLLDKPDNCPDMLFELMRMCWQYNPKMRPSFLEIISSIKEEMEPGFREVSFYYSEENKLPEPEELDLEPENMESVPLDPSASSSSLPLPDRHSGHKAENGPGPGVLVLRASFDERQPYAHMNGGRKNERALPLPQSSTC
- PROCEDURE SUMMARY: IGFR1 activity assay (ELISA)
- Type: biochemical
- RUN CONDITIONS: read-out: IGF-1R, PCT INH (30 μM), ELISA
ENDPOINT LABEL: inhibition at 30 µM

Worked examples follow.
* CN1CCN(C(=O)c2ccc3[nH]c(-c4ccc[nH]c4=O)c(-c4ccc(-c5ccccc5)cc4)c3c2)CC1 | 80 to 100%
* O=C(NCC1CCNCC1)c1ccc2[nH]c(-c3ccc[nH]c3=O)c(-c3ccccc3)c2c1 | 80 to 100%
* O=C(c1ccc2[nH]c(-c3ccc[nH]c3=O)c(-c3ccc(-c4ccccc4)cc3)c2c1)N1CCN(c2cnccn2)CC1 | 50 to 79%

Consider now this further molecule.
Req: Can you look up the measured inhibition at 30 µM of `CCOc1ccc(-c2c(-c3ccc[nH]c3=O)[nH]c3ccc(C(=O)NCCCN4CCOCC4)cc23)cc1` for me?
Resp: 80 to 100%

---

As shown below, each of these compounds has a reported inhibition at 10 µM value.
- System: KATO III
- PROCEDURE SUMMARY: MTS assay, KATO III cells
- Format: cell-based
- RUN CONDITIONS: Homo sapiens, 72 hours, read-out: KATO III, MTS cell kill % inhibition

Worked examples follow.
- O=C(c1ccc2[nH]c(-c3ccc[nH]c3=O)c(-c3ccc(-c4ccccc4)cc3)c2c1)N1CCN(Cc2ccccn2)CC1 [Compound 41]: 80 to 100%
- O=C(NCCCN1CCOCC1)c1ccc2[nH]c(-c3ccc[nH]c3=O)c(-c3ccc(F)cc3)c2c1 [Compound 68]: < 50%
- Cc1cccc(-c2c(-c3ccc[nH]c3=O)[nH]c3ccc(C(=O)NCCCN4CCOCC4)cc23)c1 [Compound 78]: < 50%

Req: Can you look up the measured inhibition at 10 µM of O=C(NCCCN1CCOCC1)c1ccc2[nH]c(-c3ccc[nH]c3=O)c(-c3ccc(F)c(Cl)c3)c2c1 [Compound 76] for me?
Resp: 80 to 100%

Req: Can you look up the measured inhibition at 10 µM of CN1CCN(C(=O)c2ccc3[nH]c(-c4ccc[nH]c4=O)c(-c4ccc(-c5ccccc5)cc4)c3c2)CC1 [Compound 52] for me?
Resp: 80 to 100%

Req: Can you look up the measured inhibition at 10 µM of CN(C)CCCNC(=O)c1ccc2[nH]c(-c3ccc[nH]c3=O)c(-c3ccccc3)c2c1 [Compound 30] for me?
Resp: 80 to 100%

Req: Can you look up the measured inhibition at 10 µM of COc1ccc(CNC(=O)c2ccc3[nH]c(-c4ccc[nH]c4=O)c(-c4ccccc4)c3c2)cc1OC [Compound 32] for me?
Resp: 80 to 100%

---

- MEASURED TARGET: IGF-1R (Homo sapiens, UniProt P08069)
- PROCEDURE SUMMARY: IGFR1 activity assay (ELISA)
- Type: biochemical
- RUN CONDITIONS: read-out: IGF-1R, PCT INH (30 μM), ELISA
ENDPOINT LABEL: inhibition at 30 µM

Worked examples follow.
- O=C(NCCCN1CCOCC1)c1ccc2[nH]c(-c3ccc[nH]c3=O)c(-c3ccc(Oc4ccccc4)cc3)c2c1: 80 to 100%
- O=C(NCCCN1CCOCC1)c1ccc2[nH]c(-c3ccc[nH]c3=O)c(-c3cc(F)ccc3F)c2c1: 80 to 100%
- O=C(NCCCN1CCOCC1)c1ccc2[nH]c(-c3ccc[nH]c3=O)c(-c3ccc(F)c(F)c3)c2c1: 80 to 100%

Req: What reported inhibition at 30 µM corresponds to `COc1ccc(-c2c(-c3ccc[nH]c3=O)[nH]c3ccc(C(=O)NCCCN4CCOCC4)cc23)c(OC)c1` on IGF-1R (Homo sapiens, UniProt P08069)?
Resp: 80 to 100%

Req: What reported inhibition at 30 µM corresponds to `O=C(NCc1ccccn1)c1ccc2[nH]c(-c3ccc[nH]c3=O)c(-c3ccc(-c4ccccc4)cc3)c2c1` on IGF-1R (Homo sapiens, UniProt P08069)?
Resp: < 50%

Req: What reported inhibition at 30 µM corresponds to CN1CCCC1CCNC(=O)c1ccc2[nH]c(-c3ccc[nH]c3=O)c(-c3ccccc3)c2c1 (stereo not drawn) on IGF-1R (Homo sapiens, UniProt P08069)?
Resp: < 50%

Req: What reported inhibition at 30 µM corresponds to `O=C(NCCOc1ccccc1)c1ccc2[nH]c(-c3ccc[nH]c3=O)c(-c3ccccc3)c2c1` on IGF-1R (Homo sapiens, UniProt P08069)?
Resp: 80 to 100%

Req: What reported inhibition at 30 µM corresponds to `COc1ccc(CNC(=O)c2ccc3[nH]c(-c4ccc[nH]c4=O)c(-c4ccccc4)c3c2)cc1OC` on IGF-1R (Homo sapiens, UniProt P08069)?
Resp: 80 to 100%

Req: What reported inhibition at 30 µM corresponds to `O=C(c1ccc2[nH]c(-c3ccc[nH]c3=O)c(-c3ccc(-c4ccccc4)cc3)c2c1)N1CCCCC1` on IGF-1R (Homo sapiens, UniProt P08069)?
Resp: < 50%

Req: What reported inhibition at 30 µM corresponds to `Cc1ccccc1-c1c(-c2ccc[nH]c2=O)[nH]c2ccc(C(=O)NCCCN3CCOCC3)cc12` on IGF-1R (Homo sapiens, UniProt P08069)?
Resp: 80 to 100%

Req: What reported inhibition at 30 µM corresponds to `COc1ccc(NC(=O)c2ccc3[nH]c(-c4ccc[nH]c4=O)c(-c4ccc(-c5ccccc5)cc4)c3c2)cc1` on IGF-1R (Homo sapiens, UniProt P08069)?
Resp: < 50%

Req: What reported inhibition at 30 µM corresponds to `O=C(c1ccc2[nH]c(-c3ccc[nH]c3=O)c(-c3ccccc3)c2c1)N1CCN(c2ccccc2F)CC1` on IGF-1R (Homo sapiens, UniProt P08069)?
Resp: 80 to 100%

Req: What reported inhibition at 30 µM corresponds to `CC(C)Oc1ccc(-c2c(-c3ccc[nH]c3=O)[nH]c3ccc(C(=O)NCCCN4CCOCC4)cc23)cc1` on IGF-1R (Homo sapiens, UniProt P08069)?
Resp: 80 to 100%
